system: MDA-MB-231/ATCC; assay: NCI-60 one-dose SRB screening; format: cell-based; conditions: Homo sapiens, Breast Cancer, 10 µM one dose, 48 h, read-out: growth percentage
REPORTED ENDPOINT: activity at 10 µM (%)
Only the number, expressed in %, is required.

// activity at 10 µM value for O=c1[nH]c(CNc2ccc(NCc3c(-c4ccccc4)no[n+]3[O-])cc2)nc2c1cnn2-c1ccccc1 [14a] : 72.5

activity at 10 µM in this record for Cc1nn(-c2ccccc2)c2ncnc(Nc3ccc(OCc4c(-c5ccccc5)no[n+]4[O-])cc3)c12 [6c] : 95.7

# activity at 10 µM (molecule: O=c1[nH]c(CCl)nc2c1cnn2-c1ccccc1 [13a] ) is 101

For reference, reported activity at 10 µM for Cc1nc(Nc2ccc(OCc3c(-c4ccccc4)no[n+]3[O-])cc2)c2cnn(-c3ccc(Br)cc3)c2n1 [6f] stands at 106

Kindly note the recorded activity at 10 µM for [O-][n+]1onc(-c2ccccc2)c1COc1ccc(Nc2ncnc3c2cnn3-c2ccc(Br)cc2)cc1 [6e] , which is 108

For this molecule ( Cc1nn(-c2ccc(Br)cc2)c2nc(C(F)(F)F)nc(Nc3ccc(NCc4c(-c5ccccc5)no[n+]4[O-])cc3)c12 [12c] ), measured activity at 10 µM is 65.9

Measured activity at 10 µM, Cc1nc(Nc2ccc(OCc3c(-c4ccccc4)no[n+]3[O-])cc2)c2c(C)nn(-c3ccccc3)c2n1 [6d] : 101

Looking up [O-][n+]1onc(-c2ccccc2)c1CNc1ccc(Nc2nc(C(F)(F)F)nc3c2cnn3-c2ccc(Br)cc2)cc1 [12b] , I found its activity at 10 µM recorded as 69.7

Entry Cc1nc(Nc2ccc(OCc3c(-c4ccccc4)no[n+]3[O-])cc2)c2c(C)nn(-c3ccc(Br)cc3)c2n1 [6h] ; activity at 10 µM = 100

Entry Cc1nn(-c2ccc(Br)cc2)c2nc(CCl)[nH]c(=O)c12 [13c] ; activity at 10 µM = 94.1

The molecule Cc1nn(-c2ccc(Br)cc2)c2nc(CNc3ccc(NCc4c(-c5ccccc5)no[n+]4[O-])cc3)[nH]c(=O)c12 [14c] showed activity at 10 µM equal to 96.5

Please fill in: activity at 10 µM reported for [O-][n+]1onc(-c2ccccc2)c1COc1ccc(Nc2ncnc3c2cnn3-c2ccccc2)cc1 [6a] = 97.5

Source: paper PMC8880564
